Overview of recorded TGI for various compounds
tested on: NCI/ADR-RES ovarian; test: NCI tumour cell line growth inhibition, 48 h

Consider the worked cases shown below.
• CC(=O)C(=C(I)I)c1ccccc1 = 49 µM
• CC1(C)C2CCC1C(=O)C(C=O)C2 (stereo unspecified) = > 100 µM
• CN(C)CCNc1cccc2sc3ccc(O)cc3c(=O)c12 = 12.7 µM
• O=S(=O)(O)c1ccc2cc(N=Nc3cc(S(=O)(=O)O)c4cccnc4c3O)ccc2c1 = > 100 µM
• COc1ccc(-c2cc(-c3ccc(Nc4ccnc5cc(Cl)ccc45)cc3)nc(N)c2C#N)c2ccccc12 = > 100 µM

Kindly consider the entry below.
I have this compound here, O=C(O)c1nnsc1COCc1ccccc1 , and I need its recorded TGI.
> 100 µM
